# testedOn: T1, human PVRIG on cells (human, UniProt Q6DKI7 1-326)
# T1 construct: whole, on cells; over-expressed on HEK cells or endogenous on Jurkat and CD8 T cells; also called hPVRIG; HEK hPVRIG cells
# T1 sequence (looked up): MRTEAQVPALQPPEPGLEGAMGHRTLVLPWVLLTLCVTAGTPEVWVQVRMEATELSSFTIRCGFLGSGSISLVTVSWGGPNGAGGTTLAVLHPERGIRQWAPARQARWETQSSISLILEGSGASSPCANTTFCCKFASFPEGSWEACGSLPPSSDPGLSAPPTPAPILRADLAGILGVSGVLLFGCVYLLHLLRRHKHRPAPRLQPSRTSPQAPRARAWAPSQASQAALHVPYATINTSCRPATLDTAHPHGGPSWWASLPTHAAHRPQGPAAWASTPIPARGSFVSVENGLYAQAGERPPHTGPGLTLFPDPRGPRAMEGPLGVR
# assayProcedure: FACS, human PBMC, CD8+ T cells, 10ug/ml
Provide the recorded gMFIr Human CD8+ T cells for the entries that follow.
Give a plain numeric answer without units written out.

Value of gMFIr Human CD8+ T cells reported for the binder CHA.7.524 (antibody, V domains shown) VH: QVQLQQSGPEVVRPGVSVKISCKGSGYKFPDYVMHWVKQSHAKSLEWIGIISIYSGNTNYNQKFKGKATMTVDKSSSTAYMELARLTSEDSAIYYCAREGDLPMFAYWGQGTLVTVSA VL: QIVLTQSPAIMSASPGEKVTMTCNASSSVSYMYWYQQKPISSPRLLIYDTSNLASGVPVRFSGSGSGTSYSLTIGRMEAEDAATYYCQQWSSYPLTFGAGTKVEVK is 6.12

Value of gMFIr Human CD8+ T cells reported for the binder CHA.7.510 (antibody, V domains shown) VH: QVTLKESGPGILQPSQTLSLTCSFSGFSLNTSGTGVGWIRQPSGKGLEWLTHIWWNDNKFYNTFLKSRLTISKETSNNQVFLKIASVDTADAATYYCARMAYGNLWFVNWGQGTLVAVST VL: DIVLTQSPASLAVSLGQRASISCRASRSVTISGYSYMYWYQQKPGQPPRLLFYLASNLASGVPARFSGSGSGTDFTLNIHPVEEEDAAIYYCQHSRELPYTFGGGTKLEIK is 2.73

Value of gMFIr Human CD8+ T cells reported for the binder CHA.7.544 (antibody, V domains shown) VH: QVQLKESGPGLVAPSQSLSITCTVSGFSLTSYAITWVRQPPGKGLEWLGVIWPGGGTNYNSALKSRLSISKDNSKSHLFLKMNSLQTDDTARYYCVRSYDGYLDWYFDVWGTGTTVTVSS VL: NIVMTQSPKSMSMSVGERVTLSCKASENVGTYVSWYQQKPDQSPKLLIYGASNRYTGVPDRFTGSGSATDFTLIISSVQAEDLSDYHCGQSYSYPYTFGGGTKLEII is 2.54

Entry source: patent US20240075137A1
